biological target: His-LAMA4 as used in Example 6 (species not stated) (Homo sapiens (Human)) (UniProt Q16363); assay: ForteBio BLI, LAMA-His on anti-His sensor, antibody 8.33 nM
Reported Kd values are given for each entry in this list.
The reply should consist of the numeric value with the unit placed after it.

Worked cases, answers included:
# BINDER, RECORDED_RESULT
measured = [
    ("chimeric 19C12 antibody (antibody, V domains shown) VH: QVQLQQSGAELVKPGASVKISCKASGYAFSTYWMNWVKQRPGEGLEWIGQIYPGDGDTNYNGKFKGKATLTADKSSSTAYMQLSSLTSEDSAVYFCARSDGYYDYWGQGTTLTVSS VL: NIVLTQSPASLAVSLGQRATISCRASESVDSYGTSFMHWYQQKPGQPPKLLICLASSLESGVPARFSGSGSRTDFTLTIDPVEADDAATYYCQQNNEDPPTFGAGTKLELKR", "0.0126 nM"),
    ("humanized 19C12 antibody H2L6 (antibody, V domains shown) VH: QVQLQQSGAELVKPGASVKVSCKASGYAFSTYWMNWVRQAPGQGLEWIGQIYPGDGDTNYNGKFKGRVTITADKSTSTAYMELSSLRSEDTAVYFCARSDGYYDYWGQGTTVTVSS VL: DIVLTQSPASLAVSLGERATISCRASESVDSYGTSFMHWYQQKPGQPPKLLISLASSLESGVPARFSGSGSGTDFTLTISPVEAEDAATYYCQQNNEDPPTFGAGTKLEIKR", "0.0154 nM"),
    ("humanized 19C12 antibody H3L6 (antibody, V domains shown) VH: EVQLQQSGAELVKPGASVKVSCKASGYAFSTYWMNWVRQAPGQGLEWIGQIYPGDGDTNYNGKFKGRVTITADKSTSTAYMELSSLRSEDTAVYFCARSDGYYDYWGQGTTVTVSS VL: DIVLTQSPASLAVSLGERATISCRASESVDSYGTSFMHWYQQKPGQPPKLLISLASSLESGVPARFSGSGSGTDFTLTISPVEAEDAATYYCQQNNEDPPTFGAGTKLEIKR", "0.0135 nM"),
    ("humanized 19C12 antibody H2L4 (antibody, V domains shown) VH: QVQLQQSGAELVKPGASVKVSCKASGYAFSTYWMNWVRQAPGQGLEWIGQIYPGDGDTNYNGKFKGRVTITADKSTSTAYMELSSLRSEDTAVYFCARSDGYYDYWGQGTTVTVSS VL: NIVLTQSPASLAVSLGERATISCRASESVDSYGTSFMHWYQQKPGQPPKLLISLASSLESGVPARFSGSGSGTDFTLTISPVEAEDAATYYCQQNNEDPPTFGAGTKLEIKR", "0.0161 nM"),
]

Could you now look at the following binder, please?
## Input Requested read-out: Kd. Entry: humanized 19C12 antibody H2L3 (antibody, V domains shown) VH: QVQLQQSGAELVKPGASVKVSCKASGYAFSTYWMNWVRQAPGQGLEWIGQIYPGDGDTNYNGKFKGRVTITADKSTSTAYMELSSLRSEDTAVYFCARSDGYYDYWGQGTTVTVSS VL: NIVLTQSPASLAVSLGERATISCRASESVDSYGTSFMHWYQQKPGQPPKLLICLASSLESGVPARFSGSGSRTDFTLTIDPVEAEDAATYYCQQNNEDPPTFGAGTKLEIKR
## Output 0.0124 nM
